tested on: Interleukin-8 release; test: Interleukin-8 release; type: cell-based
pIC50: −log10 of the molar value.
ENDPOINT LABEL: pIC50

QUERY SMILES	ASSAY SYSTEM	ENDPOINT LABEL	OBSERVED VALUE
Cc1ncc(F)c(Nc2n[nH]c3c2CN(C(=O)N2C[C@@H](C)N(CC4CCOCC4)C[C@@H]2C)C3(C)C)n1	Interleukin-8 release	pIC50	7.41

The measurements presented in this section are drawn from patent US20180318300A1.
